Measured On: Hexose transporter 1 (Plasmodium falciparum)
Method Summary: ST_JUDE_LEISH: Cytotoxicity at 2uM final concentration against transgenic Leishmania Mexicana promastigotes LmPfHT that are glucose transport deficient and complemented with the Plasmodium falciparum hexose transporter. Activity is measured by DNA content using SYBR green in vitro
Type: functional
Can you tell me inhibition for the items I'm about to list?
Number only, in %; omit the unit.

Inquiry: Give the measured inhibition for CN1CCCN(Cc2ccc(-c3cccc(NC(=O)c4cccc(Cl)c4)c3)cc2)CC1
Reply text: 9.2

Inquiry: Give the measured inhibition for Cc1ccc2cc(NC(=O)CCCCCCCON3C(N)=NC(N)=NC34CCCCC4)ccc2n1
Reply text: 0.8

Inquiry: Give the measured inhibition for COc1ccccc1-c1nc2c(ccc3nc(N)nc(N)c32)[nH]1
Reply text: 58.8

Inquiry: Give the measured inhibition for CCCC(CC)n1ccc2c3c(N)nc(N)nc3ccc21 (stereo not given)
Reply text: 76.3

Inquiry: Give the measured inhibition for O=C(NC1CCC(N2CCC(c3nc4ccccc4s3)CC2)CC1)c1cc2ccccc2[nH]1 (stereo not given)
Reply text: -2.33

Inquiry: Give the measured inhibition for c1ccc2[nH]c(-c3ccc(-c4ccc(CNC5CC5)cc4)s3)nc2c1
Reply text: 0.48

Inquiry: Give the measured inhibition for CC(C)C1CCc2nc(N)nc(N)c2C1 (stereo not given)
Reply text: 4.4

Inquiry: Give the measured inhibition for CCC(C)C(COC(=O)c1cc(OC)c(OC)c(OC)c1)N(C)CCN(C)C(COC(=O)c1cc(OC)c(OC)c(OC)c1)C(C)CC (stereo not given)
Reply text: 1.28

Inquiry: Give the measured inhibition for CC(C)c1ccc(NC(=O)c2ccc(C(=O)NC3CCN(Cc4ccccc4)CC3)cc2)cc1
Reply text: 2.91

Inquiry: Give the measured inhibition for Cc1cccc(-c2nn(-c3ccccc3)c3[nH]c(=O)c(CNC4CCCC4)cc23)c1
Reply text: 2.39

* * *

Can you tell me inhibition for the items I'm about to list?
Measured On: Glucose transporter (Leishmania mexicana) (UniProt O61059)
Method Summary: ST_JUDE_LEISH: Cytotoxicity at 2uM final concentration against transgenic Leishmania Mexicana promastigotes LmGT2 that are glucose transport deficient and complemented with the L. Mexicana glucose transporter 2. Activity is measured by DNA content using SYBR green in vitro
Type: functional
Number only, in %; omit the unit.

Inquiry: Give the measured inhibition for Cc1ccc(-c2nnc(Nc3ccc(C(=O)N4CCCCC4)cc3)c3ccccc23)cc1S(=O)(=O)NCC1CCCO1 (centres undefined)
Reply text: 3.22

Inquiry: Give the measured inhibition for Cc1nn(-c2cccc(Cl)c2)c2c1C(C(=O)c1ccc3c(c1)OCO3)CC(=O)N2 (centres undefined)
Reply text: -2.87

Inquiry: Give the measured inhibition for Nc1nc(N)c2cc(Cc3ccc([N+](=O)[O-])cc3)cnc2n1
Reply text: -0.27

Inquiry: Give the measured inhibition for O=C(Nc1ccc(CCNC2=NCCN2)cc1)Nc1ccc(CCNC2=NCCN2)cc1
Reply text: 3.62

Inquiry: Give the measured inhibition for CC(C)(C)c1ccc(CNC(=O)c2cc(CNC3CCNC3)ccc2O)cc1 (centres undefined)
Reply text: 0.53

Inquiry: Give the measured inhibition for CCCOc1ccc(C(F)(F)F)cc1NC(=O)c1nc2nc(C)cc(C)n2n1
Reply text: 1.31

Inquiry: Give the measured inhibition for CC(=O)Nc1ccc(OCCCN(Cc2ccccc2C(F)(F)F)c2ccc(C(F)(F)F)c(C#N)c2)c(Cl)c1
Reply text: 1.94

Inquiry: Give the measured inhibition for COc1cccc(-c2ccc(C(=O)NC3CCN(Cc4ccc(C(C)(C)C)cc4)CC3)s2)c1
Reply text: -1.18

Inquiry: Give the measured inhibition for COCCN1CCN(Cc2cccc(-c3ccc(-c4nc5ccccc5[nH]4)cc3)c2)CC1
Reply text: -1.36

* * *

Measured On: Solute carrier family 2, facilitated glucose transporter member 1 (Homo sapiens) (UniProt P11166)
Sequence (P11166 whole entry): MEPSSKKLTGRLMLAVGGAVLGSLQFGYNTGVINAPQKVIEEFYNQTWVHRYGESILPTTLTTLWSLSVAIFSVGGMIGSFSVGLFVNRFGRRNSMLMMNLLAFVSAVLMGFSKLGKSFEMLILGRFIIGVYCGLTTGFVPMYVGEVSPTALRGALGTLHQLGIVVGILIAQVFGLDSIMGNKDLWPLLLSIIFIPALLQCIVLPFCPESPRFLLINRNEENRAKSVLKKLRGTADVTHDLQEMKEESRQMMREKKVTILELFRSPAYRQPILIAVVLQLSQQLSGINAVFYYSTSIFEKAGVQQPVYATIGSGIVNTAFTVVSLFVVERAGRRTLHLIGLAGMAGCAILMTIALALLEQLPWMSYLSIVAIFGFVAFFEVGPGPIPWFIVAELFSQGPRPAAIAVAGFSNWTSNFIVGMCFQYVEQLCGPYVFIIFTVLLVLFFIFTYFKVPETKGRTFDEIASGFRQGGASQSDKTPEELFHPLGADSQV
Method Summary: ST_JUDE_LEISH: Cytotoxicity at 2uM final concentration against transgenic Leishmania Mexicana promastigotes LmGLUT1 that are glucose transport deficient and complemented with the human glucose transporter GLUT1. Activity is measured by DNA content using SYBR green in vitro
Assay type: functional
Can you tell me inhibition for the items I'm about to list?
Number only, in %; omit the unit.

Inquiry: Give the measured inhibition for O=C(Nc1ccc(I)cc1)N1CCc2sccc2C1CN1CCCCC1 (stereo not drawn)
Reply text: 12.2

Inquiry: Give the measured inhibition for COc1cc2nc(N3CCC(CNCc4ccc(-c5ccc(C(F)(F)F)cc5)cc4)CC3)nc(N)c2cc1OC
Reply text: 106

Inquiry: Give the measured inhibition for CCCCC(N)COc1cccc2c(-c3ccncc3)c(-c3cccc(NC(=O)Nc4ccccc4)c3)nn12 (stereo not drawn)
Reply text: 3.39

Inquiry: Give the measured inhibition for Cc1cc2ncc(C(N)=O)c(Nc3ccc(N4CCOCC4)cc3)c2cc1S(C)(=O)=O
Reply text: 1.97

Inquiry: Give the measured inhibition for O=C(NCC1CCC(CNCCCc2ccccc2)CC1)Nc1ccc(Cl)c(Cl)c1 (stereo not drawn)
Reply text: 1.76

Inquiry: Give the measured inhibition for O=C(NC(Nc1ccc([N+](=O)[O-])cc1)C(Cl)(Cl)Cl)c1cccc(Cl)c1 (stereo not drawn)
Reply text: 4.07

Inquiry: Give the measured inhibition for Clc1ccc(/N=C(/NCCCCCCCN/C(=N\c2ccc(Cl)cc2)Nc2ccc(Cl)cc2)Nc2ccc(Cl)cc2)cc1
Reply text: 0.4

Inquiry: Give the measured inhibition for C[C@@H](NC(=O)NC(CCN1CCC2(CC1)CN(S(C)(=O)=O)c1ccccc12)c1ccc(Cl)c(Cl)c1)c1ccccc1 (stereo partly drawn)
Reply text: 0.39

Inquiry: Give the measured inhibition for CC(C)(C)c1ccc2nccc(Nc3cccc(O)c3)c2c1
Reply text: 2.99

Inquiry: Give the measured inhibition for O=C(NCc1ccc(Cl)c(Cl)c1)c1ccc(C2CCCN(Cc3ccc4[nH]cnc4c3)C2)cc1 (stereo not drawn)
Reply text: 5

Inquiry: Give the measured inhibition for CCc1c(CCNCCCCCCNCc2ccc3c(c2CC)OCO3)ccc(OC)c1OC
Reply text: 10.6

Inquiry: Give the measured inhibition for FC(F)(F)c1ccccc1OCc1cc(-c2ccncc2)c(COc2ccccc2C(F)(F)F)cc1C1=CCNCC1
Reply text: 2.44

Inquiry: Give the measured inhibition for COc1ccc(Cn2c(Nc3cccc(C(F)(F)F)c3)nc3cc(C(=O)NCCN4CCCC4)cnc32)cc1Cl
Reply text: 13.2

Inquiry: Give the measured inhibition for COc1ccc(C(=O)Nc2cc(Cl)c3c(c2)C2CCCN2CC3)cc1C(F)(F)F (stereo not drawn)
Reply text: 3.22

Inquiry: Give the measured inhibition for CCN1CCCC1CN(Cc1ccc(-c2ccc(C(F)(F)F)cc2)cc1)C(=O)Cn1c(CCc2cccc(F)c2F)nc(=O)c2ccccc21 (stereo not drawn)
Reply text: 1.13

Inquiry: Give the measured inhibition for Cn1cncc1C(=O)Nc1cccc(-c2ccc(-c3nc4ccccc4[nH]3)cc2)c1
Reply text: -2.56

Inquiry: Give the measured inhibition for COc1ccc2ncc(Cl)c(CCN3CC[C@@H](CNCc4cc5c(cn4)OCS5)C3)c2n1
Reply text: 6.89

Inquiry: Give the measured inhibition for Cc1noc(C)c1-c1cccc(CNCc2ccc(-c3ccc(-c4nc5cccc(C)c5[nH]4)cc3)cc2)c1
Reply text: 2.03

* * *

Can you tell me inhibition for the items I'm about to list?
Measured On: Glucose transporter (Leishmania mexicana)
Method Summary: ST_JUDE_LEISH: Cytotoxicity at 2uM final concentration against transgenic Leishmania Mexicana promastigotes LmGT2 that are glucose transport deficient and complemented with the L. Mexicana glucose transporter 2. Activity is measured by DNA content using SYBR green in vitro
Format: functional
Number only, in %; omit the unit.

Inquiry: Give the measured inhibition for Cc1cccc2nc(-c3ccc(-c4ccc(NC(=O)Nc5ccc(F)c(F)c5F)cc4)cc3)[nH]c12
Reply text: 7.14

Inquiry: Give the measured inhibition for CC(C)C[C@@H](C(=O)Nc1ccc(Cc2ccc(NC(=O)[C@H](CC(C)C)N(C)C(=O)OC(C)(C)C)cc2)cc1)N(C)C(=O)OC(C)(C)C
Reply text: -0.46

Inquiry: Give the measured inhibition for COc1ccc(F)cc1-c1ccc(C(=O)N2CCCN(c3ccc(C#N)cn3)CC2)cc1
Reply text: -5.82

Inquiry: Give the measured inhibition for O=C(Cc1cccs1)NCC(c1ccccc1Cl)c1c[nH]c2ccccc12 (stereo not given)
Reply text: 1.14

Inquiry: Give the measured inhibition for CCSc1nnc(C2CCCN(CC(=O)Nc3cc(C(F)(F)F)ccc3Cl)C2)n1CC (stereo not given)
Reply text: 8.67

Inquiry: Give the measured inhibition for CC(C)Cn1c(Sc2ccc(C#N)c([N+](=O)[O-])c2)nnc1-c1cccc(Cl)c1
Reply text: 9.62

Inquiry: Give the measured inhibition for O=C(NCCCCN1CCC(c2ccc3c(c2OCCN2CCCC2)CCCC3)CC1)c1ccc(-c2ccc(C(F)(F)F)cc2)cc1
Reply text: 4

Inquiry: Give the measured inhibition for COc1ccc2nccc(N/N=C/c3ccc([N+](=O)[O-])cc3)c2c1
Reply text: 3.94

Inquiry: Give the measured inhibition for O=C(NCCc1ccccc1F)c1ccc(N2CCN(c3ccncc3)CC2)cn1
Reply text: 8.65

Inquiry: Give the measured inhibition for Cc1cc(N2CCCC2)nc(Nc2ccc(NC(=O)c3ccco3)cc2)n1
Reply text: -0.1

Inquiry: Give the measured inhibition for Fc1cc(Cl)ccc1Nc1ccnc2cc(-c3ccc(CN4CCOCC4)o3)ccc12
Reply text: 43.6

Inquiry: Give the measured inhibition for FC(F)(F)c1ccc2[nH]ccc(=NN=Cc3cccnc3)c2c1
Reply text: 5.22

Inquiry: Give the measured inhibition for COc1ccc2ncc(F)c(CCN3CCC(NCc4cc(Br)c5c(c4)OCCO5)CC3)c2n1
Reply text: 14.3

Inquiry: Give the measured inhibition for Cc1ccc2nc3ccccc3c(NCCN3CCN(C)CC3)c2c1
Reply text: 21.1

Inquiry: Give the measured inhibition for COc1nc2c(N3CCN(CCNCc4ccc5c(n4)NC(=O)CS5)CC3)ccnc2cc1F
Reply text: 0.49

Inquiry: Give the measured inhibition for COc1ccccc1CCNc1nc(C)cc(N[C@@H](CC(C)C)C(=O)NCCc2ccccc2)n1
Reply text: 2.57

Inquiry: Give the measured inhibition for O=C(Nc1ccccc1)Nc1cccc(-c2nn3c(OCCN4CCCC4)cccc3c2-c2ccncc2)c1
Reply text: 6.34

Inquiry: Give the measured inhibition for COc1cccc2c(NN=Cc3ccccc3F)ccnc12
Reply text: 2.85

Inquiry: Give the measured inhibition for CCCCNc1cc(C)nc(NCc2ccccc2)n1
Reply text: 5.11

Inquiry: Give the measured inhibition for CC(C)CN(c1nc(C(=O)NNC(=O)[C@H](CC2CC2)NC(=O)c2cc3cc(OCCN(C)C)ccc3o2)cs1)C1CC1
Reply text: 7.9

Reference for the values: ChEMBL document CHEMBL3433997
